protocol.description: Formation of 1,5-cz-[Ln(Lig)] from Lig and Ln^III ions (metal dependent click-zip), MOPS/NaOH buffer pH 7.0, analytical HPLC (Charts 1, 2)
condition.details: Ho^III; after 1 week at 80° C.; MOPS/NaOH buffer pH 7.0
metric: conversion to 1,5-cz-[Ln(Lig)], Ho^III (%)
Give bare numbers, in %.

Consider the reported conversion to 1,5-cz-[Ln(Lig)], Ho^III for these compounds:
C#CCN(CC#C)CCN1CCN(CC(=O)O)CCN(Cc2cc(-c3ccccc3)cc(CN=[N+]=[N-])n2)CCN(CC(=O)O)CC1: 14
C#Cc1cccc(CN2CCN(CP(=O)(O)c3ccccc3)CCN(Cc3cccc(CN=[N+]=[N-])n3)CCN(CP(=O)(O)c3ccccc3)CC2)n1: 31
CC(C)(N)C#Cc1cccc(CN2CCN(CC(=O)O)CCN(Cc3cc(-c4ccccc4)cc(CN=[N+]=[N-])n3)CCN(CC(=O)O)CC2)n1: 79
C#Cc1cccc(CN2CCN(CC(=O)O)CCN(Cc3cc(-c4ccc(C(=O)O)cc4)cc(CN=[N+]=[N-])n3)CCN(CC(=O)O)CC2)n1: 94
C#Cc1cccc(CN2CCN(CCC(=O)O)CCN(Cc3cccc(CN=[N+]=[N-])n3)CCN(CCC(=O)O)CC2)n1: 0
C#Cc1cccc(CN2CCN(CC(=O)O)CCN(Cc3cc(N(C)C)cc(CN=[N+]=[N-])n3)CCN(CC(=O)O)CC2)n1: 96
C#Cc1cccc(CN2CCN(CC(=O)O)CCN(Cc3cc(C(=O)OC(C)C)cc(CN=[N+]=[N-])n3)CCN(CC(=O)O)CC2)n1: 0
[N-]=[N+]=NCc1cc(-c2ccccc2)cc(CN2CCN(CC(=O)O)CCN(Cc3cccc(C#CCN)n3)CCN(CC(=O)O)CC2)n1: 82
C#Cc1cccc(CN2CCN(CC(=O)O)CCN(Cc3cc(C(F)(F)F)cc(CN=[N+]=[N-])n3)CCN(CC(=O)O)CC2)n1: 90
CC(C)(C)C#Cc1cccc(CN2CCN(CC(=O)O)CCN(Cc3cccc(CN=[N+]=[N-])n3)CCN(CC(=O)O)CC2)n1: 84

# batch: return conversion to 1,5-cz-[Ln(Lig)], Ho^III for each of the 2 compounds below
1. C#Cc1cccc(CN2CCN(CC(=O)NCC(=O)O)CCN(Cc3cc(-c4ccccc4)cc(CN=[N+]=[N-])n3)CCN(CC(=O)NCC(=O)O)CC2)n1
2. C#Cc1cccc(CN2CCN(CC(N)=O)CCN(Cc3cc(-c4ccccc4)cc(CN=[N+]=[N-])n3)CCN(CC(N)=O)CC2)n1

[30, 0]

###

protocol.description: Formation of 1,5-cz-[Ln(Lig)] from Lig and Ln^III ions (metal dependent click-zip), MOPS/NaOH buffer pH 7.0, analytical HPLC (Charts 1, 2)
condition.details: Nd^III; after 1 hour at 80° C.; MOPS/NaOH buffer pH 7.0
Please go through the items and note down their conversion to 1,5-cz-[Ln(Lig)], Nd^III.
Answers are plain numbers, in %.

C#Cc1cccc(CN2CCN(CC(=O)O)CCN(Cc3cc(N(C)C)cc(CN=[N+]=[N-])n3)CCN(CC(=O)O)CC2)n1: 2

// input: 8 compounds below; output: conversion to 1,5-cz-[Ln(Lig)], Nd^III for each
1. C#CCN(CC#C)CCN1CCN(CC(=O)O)CCN(Cc2cc(-c3ccccc3)cc(CN=[N+]=[N-])n2)CCN(CC(=O)O)CC1
2. C#Cc1cccc(CN2CCN(CC(=O)O)CCN(Cc3cc(C(F)(F)F)cc(CN=[N+]=[N-])n3)CCN(CC(=O)O)CC2)n1
3. C#Cc1cccc(CN2CCN(CC(N)=O)CCN(Cc3cc(-c4ccccc4)cc(CN=[N+]=[N-])n3)CCN(CC(N)=O)CC2)n1
4. C#Cc1cccc(CN2CCN(CC(=O)O)CCN(Cc3cc(-c4ccccc4)cc(CN=[N+]=[N-])n3)CCN(CC(=O)O)CC2)n1
5. [N-]=[N+]=NCc1cccc(CN2CCN(CC(=O)O)CCN(Cc3cccc(C#CC4CCNCC4)n3)CCN(CC(=O)O)CC2)n1
6. C#Cc1cccc(CN2CCN(CCC(=O)O)CCN(Cc3cccc(CN=[N+]=[N-])n3)CCN(CCC(=O)O)CC2)n1
7. C#Cc1cccc(CN2CCN(CC(=O)O)CCN(Cc3cccc(CN=[N+]=[N-])n3)CCN(CC(=O)O)CC2)n1
8. [N-]=[N+]=NCc1cccc(CN2CCN(CC(=O)O)CCN(Cc3cccc(C#Cc4ccccc4)n3)CCN(CC(=O)O)CC2)n1

[0, 2, 0, 1, 0, 0, 2, 0]

Provide reported conversion to 1,5-cz-[Ln(Lig)], Nd^III for each item, in the same order as listed.
1. C#Cc1cccc(CN2CCN(CC(=O)O)CCN(Cc3cc(-c4ccc(C(=O)O)cc4)cc(CN=[N+]=[N-])n3)CCN(CC(=O)O)CC2)n1
2. C#Cc1cccc(CN2CCN(CC(=O)NCC(=O)O)CCN(Cc3cc(-c4ccccc4)cc(CN=[N+]=[N-])n3)CCN(CC(=O)NCC(=O)O)CC2)n1
3. [N-]=[N+]=NCc1cccc(CN2CCN(CC(=O)O)CCN(Cc3cccc(C#CI)n3)CCN(CC(=O)O)CC2)n1
4. CC(C)(N)C#Cc1cccc(CN2CCN(CC(=O)O)CCN(Cc3cc(-c4ccccc4)cc(CN=[N+]=[N-])n3)CCN(CC(=O)O)CC2)n1
5. [N-]=[N+]=NCc1cc(-c2ccccc2)cc(CN2CCN(CC(=O)O)CCN(Cc3cccc(C#CCN)n3)CCN(CC(=O)O)CC2)n1
6. C#CCNC(=O)CN1CCN(CC(=O)O)CCN(Cc2cc(-c3ccccc3)cc(CN=[N+]=[N-])n2)CCN(CC(=O)O)CC1
7. C#Cc1cccc(CN2CCN(CP(=O)(O)OCC)CCN(Cc3cccc(CN=[N+]=[N-])n3)CCN(CP(=O)(O)OCC)CC2)n1

1
9
0
1
0
0
6
